# SYSTEM: IDO (Homo sapiens)
# Construct: selective against A172+IFNg cells (high IDO expressing cells)
# Sequence (P14902 whole entry): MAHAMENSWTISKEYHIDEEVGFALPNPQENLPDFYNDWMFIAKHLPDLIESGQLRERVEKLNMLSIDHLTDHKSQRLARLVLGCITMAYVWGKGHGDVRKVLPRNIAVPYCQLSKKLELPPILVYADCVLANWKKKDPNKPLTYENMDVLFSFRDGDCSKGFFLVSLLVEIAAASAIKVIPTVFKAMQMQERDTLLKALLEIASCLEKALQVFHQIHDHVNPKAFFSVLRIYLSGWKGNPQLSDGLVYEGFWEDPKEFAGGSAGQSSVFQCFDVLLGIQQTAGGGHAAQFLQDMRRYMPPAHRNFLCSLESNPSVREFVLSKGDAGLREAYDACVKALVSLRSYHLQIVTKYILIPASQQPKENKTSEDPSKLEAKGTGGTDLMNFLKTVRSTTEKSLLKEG
# EXPERIMENT: IDO cell assay (NFK GreenScreen, A172+IFNg cells)
# SETTINGS: A172 cells + 100 ng/ml IFNγ (high IDO expressing), 100 uM tryptophan, 24 hours; TDO selectivity table; read-out: IDO cell Fluor EC50
PARAMETER MEASURED: EC50 (µM)

(A) O[C@@H]1c2ccnn2CC[C@H]1[C@H]1c2ccccc2-c2cncn21 [Example 56a]
(B) NS(=O)(=O)N1CCC(O)C(C2c3ccccc3-c3cncn32)CC1 (single isomer, unassigned) [Example 101d]
Query: Of A and B , which one carries the higher reported EC50? Your choice should be expressed through its label.
Reply: B
(B: 21 µM, A: 4.5 µM)
